System: Plasmodium falciparum
protocol notes: Primary screen in NF54 nanoGlo assay, in single point, at 2uM, 72h
Type: functional, Erythrocyte
condition: timepoint 72 hour
Hit rate of the full screen: of about 150,000 compounds, about 540 (0.36%) showed an effect of 50% or more. The full list was thinned out, with strong results kept by preference.
experimental endpoint: % Inhibition (%)

| query smiles | target system | readout units | val |
| --- | --- | --- | --- |
| CCN(CC)Cc1cnc2c(C(=O)N(C)C3Cc4ccccc4C3)cnn2c1 | Plasmodium falciparum | % | -6 |
| CN(C)c1ccc(C(=O)Nc2ccccc2-c2cn3c(n2)CCCC3)nn1 | Plasmodium falciparum | % | -10 |
| Cc1nc(CC(=O)NC[C@H](O)COc2ccc(F)cc2)cs1 | Plasmodium falciparum | % | -3 |
| Cc1cccc(C(=O)ON2C(=O)CCC2=O)c1 | Plasmodium falciparum | % | 39 |
| COCCN1C(=O)c2ccc(C(=O)NCc3ccncc3)cc2C1=O | Plasmodium falciparum | % | -3 |
| Cc1cccc(CN(CC2CCN(C3Cc4ccccc4C3)CC2)C[C@H]2CCCO2)n1 | Plasmodium falciparum | % | -1 |
| O=C(ON1C(=O)CCC1=O)c1cc2ccccc2[nH]1 | Plasmodium falciparum | % | 61 |
| CCN(Cc1csc(C)n1)C[C@H]1CCCCO1 | Plasmodium falciparum | % | 2 |
| Cn1cnnc1[C@H]1CCCN(S(=O)(=O)N2CCCCC2)C1 | Plasmodium falciparum | % | -6 |
| Cc1cc(C)c(NC(=O)OCc2cccc3cccnc23)c(C)c1 | Plasmodium falciparum | % | 88 |
| Cc1cccc(CN(Cc2cccc(C)n2)C[C@H]2CCCCO2)n1 | Plasmodium falciparum | % | 90 |

###

Test system: Plasmodium falciparum
protocol notes: Primary screen in NF54 nanoGlo assay, in single point, at 2uM, 72h
Type: functional, Erythrocyte
condition: timepoint 72 hour
The whole screen tested about 150,000 compounds, of which about 540 (0.36%) showed an effect of 50% or more. What follows is part of a selection rich in strong results, with near analogues and random picks from the rest.
Field: label. Allowed values: YES (% Inhibition < 10%) or NO (% Inhibition >= 10%).

| query smiles | label value |
| --- | --- |
| C[C@H](NC(=O)C1=NN(C)C(=O)CC1)c1ccc2c(c1)OCCO2 | YES |
| COc1ccnc(CN2CCC[C@H](c3nc(-c4ccccc4)c[nH]3)C2)c1OC | NO |
| CC(C)c1nnc(C2CCN(C(=O)c3c[nH]c4ccccc34)CC2)o1 | NO |
| COc1ccc(NC(=O)c2ccc3nn(CC(=O)Nc4ccc(F)cc4)c(=O)n3c2)cc1 | YES |
| FC(F)(F)c1cnc(N2CCOC3(CCOCC3)CC2)s1 | NO |
| CCC1(N2CCOCC2)CCN(c2ncc(C(F)(F)F)s2)CC1 | NO |

###

Test system: Plasmodium falciparum
protocol notes: Primary screen in NF54 nanoGlo assay, in single point, at 2uM, 72h; a lower Z score goes with more inhibition
Assay type: functional, Erythrocyte
condition: timepoint 72 hour
The campaign covered roughly 150,000 compounds. About 540 (0.36%) showed an effect of 50% or more. The list comes from a sample in which strong results are over-represented; it also holds close analogues and randomly drawn compounds.
Consider the following molecules and their measured Z score readings.

| molecule | Z score |
| --- | --- |
| COc1ccccc1CN1COc2cc3c(cc2C1)OCO3 | -4.75 |
| C=C1C2CCC3(C4C[C@@H]5[C@@]6(C)CCC[C@]5(C3[C@H]2O)[C@@H]4N(CC)C6)[C@@H]1O (stereo not given in full) | -3.48 |
| COc1cccc(OC)c1-c1cncc(C(=O)NCC2CC2)c1 | 1.48 |
| CCN(CC)S(=O)(=O)c1ccc2c(c1)nnn2CCNC(=O)Nc1cccc(F)c1 | -2.96 |
| CCc1nc(C)cc(N(C)CCn2nc(C)cc2C)n1 | 1.72 |
| Cc1ccc(C(=O)N2CCCC(C(=O)N3CCCC(c4nnc5ccccn45)C3)C2)cc1 (stereo not given) | 1.13 |
| CC(=O)N1CCC(C(NC(=O)c2cccs2)C(=O)N2CCCCC2C)CC1 (stereo not given) | -0.78 |
| CC(C)[C@H]1CN(C(=O)c2nc(C(F)(F)F)n3c2CCCC3)CCN1 | 1.9 |
| CNC(=O)[C@@H]1C[C@@H](Nc2ccnc(OC)c2C#N)CN1Cc1ccccn1 | -0.32 |
| Cc1cc(O)nc([C@H](C)N(C)CC2CCOCC2)n1 | 1.59 |
